Reference source for all entries: patent US12435051B2

A collection of compounds and their measured IC50
ASSAY_SYSTEM: UniProt:P41594
Sequence (P41594 21-1212): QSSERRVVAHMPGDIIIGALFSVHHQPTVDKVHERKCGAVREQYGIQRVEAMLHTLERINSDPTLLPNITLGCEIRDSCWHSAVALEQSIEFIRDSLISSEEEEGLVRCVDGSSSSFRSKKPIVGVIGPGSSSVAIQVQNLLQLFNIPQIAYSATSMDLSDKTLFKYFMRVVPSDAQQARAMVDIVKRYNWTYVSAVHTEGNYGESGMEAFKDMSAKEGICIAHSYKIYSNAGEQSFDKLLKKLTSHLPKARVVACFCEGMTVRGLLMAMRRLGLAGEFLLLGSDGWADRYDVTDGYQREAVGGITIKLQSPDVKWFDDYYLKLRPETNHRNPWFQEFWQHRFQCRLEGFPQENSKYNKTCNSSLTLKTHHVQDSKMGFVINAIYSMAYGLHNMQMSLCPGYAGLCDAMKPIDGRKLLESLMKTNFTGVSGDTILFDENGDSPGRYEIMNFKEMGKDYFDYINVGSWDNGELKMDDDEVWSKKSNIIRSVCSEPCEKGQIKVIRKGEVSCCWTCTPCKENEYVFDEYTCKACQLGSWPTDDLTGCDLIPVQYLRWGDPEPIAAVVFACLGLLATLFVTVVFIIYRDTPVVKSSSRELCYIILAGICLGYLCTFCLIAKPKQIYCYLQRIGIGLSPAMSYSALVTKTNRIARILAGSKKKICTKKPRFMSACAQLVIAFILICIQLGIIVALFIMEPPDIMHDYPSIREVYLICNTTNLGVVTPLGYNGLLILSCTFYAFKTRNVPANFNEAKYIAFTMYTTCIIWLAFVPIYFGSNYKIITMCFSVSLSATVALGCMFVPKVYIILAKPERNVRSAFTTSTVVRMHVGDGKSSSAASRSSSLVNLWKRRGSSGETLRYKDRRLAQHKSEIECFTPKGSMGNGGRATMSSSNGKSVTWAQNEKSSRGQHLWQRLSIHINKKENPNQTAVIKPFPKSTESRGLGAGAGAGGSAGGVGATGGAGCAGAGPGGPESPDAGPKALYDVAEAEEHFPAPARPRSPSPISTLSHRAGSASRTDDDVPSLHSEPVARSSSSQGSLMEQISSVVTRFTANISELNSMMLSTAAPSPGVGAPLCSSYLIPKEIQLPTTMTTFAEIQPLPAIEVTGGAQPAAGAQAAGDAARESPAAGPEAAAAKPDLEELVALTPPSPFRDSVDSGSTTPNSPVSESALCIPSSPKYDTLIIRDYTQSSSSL
ASSAY_REMARKS: Fluorescence-based Ca2+ mobilization assay
RECORDED_CONDITIONS: HEK293 cells overexpressing mGluR5; L-glutamate at EC80

Record excerpt, results attached:
{"COMPOUND": "CC(NC(=O)c1ccc(C#Cc2ccccc2F)cc1)C1CCOCC1 (stereo not drawn) [Example 42]", "IC50": "< 100 nM"}
{"COMPOUND": "CC1(CNC(=O)c2ccc(C#Cc3ccccc3F)cc2)CCC1 [Example 105]", "IC50": "< 100 nM"}
{"COMPOUND": "CNC(=O)CC1(CNC(=O)c2ccc(C#Cc3ccccc3F)cc2)CCCCC1 [Example 80]", "IC50": "100 to 500 nM"}

In: # input compound: CN(C)C(=O)CC1(CNC(=O)c2ccc(C#Cc3ccccc3F)cc2)CCCCC1 [Example 81] ; wanted: its IC50
Out: 500 to 1000 nM
